biological target: pooled human IgG (human IgG1, 2, 3 and 4) (human); assay: cell-based or functional assay; also: test concentration or dose not given here
Here the recorded Enzyme Activity Endpoint Assay: Fc is given for each entry.
Express the result in ng/µL but write the number alone.

Sample records with Enzyme Activity Endpoint Assay: Fc:
1) PRT-376 (enzyme) MVTSVWTKGVTPPTNFTYGEDVLHAPYVANQGWYDITKLFNGKDDLLCGAATAGNMLHWWFDQNKEQIENYLKKHPEKQKINFNGEQMFDVKEAIDTKDSQLDSKLFEYFKEKAFPYLSTKHLGVFPDHVIDMFINGYRLSLTNHGPTPVKRGSKDPRGGIFDAVFTRGDQSKLLTNRHDFKEKTLKEISDLIKQELTEGKALGISHTYANVRINHVINLWGADFDAEGNLEAIYVTDSDSNASIGMKKYFVGVNSNGKVAISAKEIEEDNIGAQVLGLFTLSTGQDIWNQTN :: 325
2) PRT-387 (enzyme) MVTSVWTKGVTPPTNFTYGEDVLHAPYVANQGWYDITKTFNGKDDLLCGAATAGNMLHWWFDQNKEQIENYLKKHPEKQKINFNGEQMFDVKEAIDTKDSQLDSKLFEYFKEKAFPYLSTKHLGVFPDHVIDMFINGYRLSLTNHGPTPVKRGSKDPRGGIFDAVFTRGDQSKLLTNRHDFKEKTLKEISDLIKQELTEGKALGISHTYANVRINHVINLWGADFDAEGNLEAIYVTDSDSNASIGMKKYFVGVNSSGKVAISAKEIEEDNIGAQVLGLFTLSTGQDIWNQTN :: 366
3) PRT-418 (enzyme) MTITSVWTKGVTPPTPEDFRYNNEDVLHAPYVANQGWYDITKTFDGKDNLLCGAATAGNMLHWWFDQNKEEIERYLKKHPEKQKIIFNNQELFDVKAAIDTKDSQTNSKLFNYFRDKAFPNLSARQLGVMPDLVLDMFINGYYLNLGKTQSTDVNRPYQDKDKRGGIFDAVFTRGDQTTLLTARHDLKNKGLNEISDLIKQELTEGKALALSHTYANVRINHVINLWGADFDAEGNLIAIYVTDSDANASIGMKKYAVGVNANGKVAISAKKIEGDNIGAQVLGLFTLSTGQDIWQKLS :: 283

Consider the additional binder presented here.
Consider PRT-444 (enzyme) MSQTEDSESLQRLRDIEDFQAEKKKQNVVYTKWLDGVDVKDHDFRKIVDGNIAYYATPLLNGRGFYDINKDFNRDSDKCAAAVAANMFHYWLDRNRDNVDRFLRQNPEKHGIIELPDGQLKLSDFLNTYESDDGYRDKSKLFDFISNNFNKPVWTDKLLDNYINGYAYNYKYGRTIEDPTKNTSKINFFKEVFNEKILTNNHSIRNQNEFSVLLSEALYTGKAIGLSYGPAGLRHSLGHIISVWGADLDADGNVVAIYVTDSDDKKLTIGDERVGLKRYKISTDDEGRLRLTAYEETHNTGGQIRGLWTLDTGKQAWADYFDKTEQTGTDQAEQ . Its measured Enzyme Activity Endpoint Assay: Fc is 321
